Just for reference, patent US20220389085A1 is where these values come from.

# testedSystem: T1, protein A56 of the oncolytic virus OTS-412 (vaccinia virus (OTS-412), UniProt P08714 17-315)
# T1 construct: also called OTS-412-A56; protein A56 variant
# T1 chain: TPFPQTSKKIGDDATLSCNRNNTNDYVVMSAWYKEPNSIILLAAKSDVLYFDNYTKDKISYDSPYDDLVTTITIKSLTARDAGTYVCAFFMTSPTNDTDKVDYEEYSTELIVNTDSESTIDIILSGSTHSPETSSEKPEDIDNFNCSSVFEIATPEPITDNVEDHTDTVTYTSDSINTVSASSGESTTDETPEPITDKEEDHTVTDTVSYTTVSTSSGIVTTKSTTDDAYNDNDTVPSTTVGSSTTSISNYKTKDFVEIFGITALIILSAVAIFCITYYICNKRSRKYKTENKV
# measurementNotes: flow cytometry, A549 cells treated with OTS-412
measuredProperty: binding signal (flow cytometry, %)

Look at this binder and give its reported binding signal (flow cytometry, %). A56-02A02 (Ab13) (antibody, V domains shown) VH: QMQLVESGAEVKKTGSSVKVSCKASGDTLTYRFLHWVRQAPGQAPEWMGWITPFNDNTNYAQKFQDRVTITRDRSMSTAYMELSSLRSEDTAVYYCATGGGNNYYGMEVWGQGTPITVSS VL: SYELTQPLSLSVSPGQTASITCSGDKLGDKFTSWYQQQPGQSPVLVIYQDAKRPSGIPERFSGSNSGSTATLTISGTQSMDEADYYCQAWDSSSVVFGGGTKLTVL
≥ 90%
